Assay: Half life in ICR mouse at 1 mg/kg, iv measured upto 24 hrs by LC-MS analysis
Assay type: ADME, organism-based
Details: in vivo
Listed here are compounds together with their documented half-life.
Respond numerically; units are min and should not be typed.

Examples with their reported half-life follow.
| structure | displayUnit | half-life |
| --- | --- | --- |
| O=C1O[C@@H](CO)CN1c1ccc(-c2ccc(/C=N/N3CCOCC3)nc2)c(F)c1 | min | 126 |
| O=C1O[C@@H](CO)CN1c1ccc(-c2ccc(/C=N/N3CCCCC3)nc2)c(F)c1 | min | 92.4 |
| CC(C)N/N=C/c1ccc(-c2ccc(N3C[C@H](CO)OC3=O)cc2F)cn1 | min | 20.4 |

Exam item: Identify the reported half-life for the following entry. "CC(=O)NC[C@H]1CN(c2ccc(N3CCOCC3)c(F)c2)C(=O)O1"
Marked response: 23.4
